From: ChEMBL document CHEMBL1137770

biological target: Delta-type opioid receptor (Rattus norvegicus, UniProt P33533); experiment: Displacement of [3H][Ile5,6]deltorphin-2 from delta opioid receptor in Wistar rat brain membrane
Sequence (P33533 whole entry): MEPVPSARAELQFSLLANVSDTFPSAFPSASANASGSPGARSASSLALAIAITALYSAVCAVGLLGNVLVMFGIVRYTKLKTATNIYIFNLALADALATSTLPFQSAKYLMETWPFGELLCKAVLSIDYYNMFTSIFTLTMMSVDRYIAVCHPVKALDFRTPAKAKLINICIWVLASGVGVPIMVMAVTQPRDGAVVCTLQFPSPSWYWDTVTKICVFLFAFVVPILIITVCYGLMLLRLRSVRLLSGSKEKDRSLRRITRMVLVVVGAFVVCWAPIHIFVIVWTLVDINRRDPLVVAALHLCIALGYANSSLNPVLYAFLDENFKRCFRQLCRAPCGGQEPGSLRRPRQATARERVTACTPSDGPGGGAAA
Square brackets hold non-standard residues; d marks the D form. Peptide text beside a SMILES is read from it. Inp = O=C(O)C1CCNCC1
The entries below come with measured IC50 values attached.
RESULT TYPE: IC50 (nM)

INSERT INTO measurements (molecule, unit_annotation, relation_sign, value) VALUES
  ('Cc1cc(O)cc(C)c1C[C@H](N)C(=O)N1CCC[C@@H](C(=O)N[C@@H](Cc2ccccc2)C(=O)N[C@@H](Cc2ccccc2)C(N)=O)C1', 'nM', '=', 407),
  ('NC(=O)[C@H](Cc1ccccc1)NC(=O)[C@H](Cc1c[nH]c2ccccc12)NC(=O)[C@@H]1CCCCN1C(=O)[C@@H](N)Cc1ccc(O)cc1', 'nM', '>', 1000),
  ('NC(=O)[C@H](Cc1ccccc1)NC(=O)[C@H](Cc1c[nH]c2ccccc12)NC(=O)C1CCN(C(=O)[C@@H](N)Cc2ccc(O)cc2)CC1 (H-Y[Inp]WF-NH2)', 'nM', '=', 860),
  ('NC(=O)[C@H](Cc1ccccc1)NC(=O)[C@H](Cc1c[nH]c2ccccc12)NC(=O)[C@@H]1CCCN(C(=O)[C@@H](N)Cc2ccc(O)cc2)C1', 'nM', '>', 1000),
  ('NC(=O)[C@H](Cc1ccccc1)NC(=O)[C@H](Cc1ccccc1)NC(=O)[C@@H]1CCCCN1C(=O)[C@@H](N)Cc1ccc(O)cc1', 'nM', '>', 1000),
  ('Cc1cc(O)cc(C)c1C[C@H](N)C(=O)N1CCC[C@@H](C(=O)N[C@@H](Cc2c[nH]c3ccccc23)C(=O)N[C@@H](Cc2ccccc2)C(N)=O)C1', 'nM', '=', 89),
  ('NC(=O)[C@H](Cc1ccccc1)NC(=O)[C@H](Cc1ccccc1)NC(=O)[C@@H]1CCCN(C(=O)[C@@H](N)Cc2ccc(O)cc2)C1', 'nM', '>', 1000);

###

species: Rattus norvegicus; assay: Selectivity ratio of IC50 for delta opioid receptor to IC50 for mu opioid receptor in Wistar rat brain membrane; type: cell membranes
Square brackets hold non-standard residues; d marks the D form. Peptide text beside a SMILES is read from it. Inp = O=C(O)C1CCNCC1
As shown below, each of these compounds has a reported Ratio IC50 value.
RESULT TYPE: Ratio IC50

INSERT INTO results (compound, value) VALUES
  ('NC(=O)[C@H](Cc1ccccc1)NC(=O)[C@H](Cc1c[nH]c2ccccc12)NC(=O)[C@@H]1CCCN(C(=O)[C@@H](N)Cc2ccc(O)cc2)C1', '> 281'),
  ('NC(=O)[C@H](Cc1ccccc1)NC(=O)[C@H](Cc1c[nH]c2ccccc12)NC(=O)[C@@H]1CCCCN1C(=O)[C@@H](N)Cc1ccc(O)cc1', '> 49'),
  ('Cc1cc(O)cc(C)c1C[C@H](N)C(=O)N1CCC[C@@H](C(=O)N[C@@H](Cc2ccccc2)C(=O)N[C@@H](Cc2ccccc2)C(N)=O)C1', '> 1000'),
  ('NC(=O)[C@H](Cc1ccccc1)NC(=O)[C@H](Cc1ccccc1)NC(=O)[C@@H]1CCCN(C(=O)[C@@H](N)Cc2ccc(O)cc2)C1', '> 1000'),
  ('Cc1cc(O)cc(C)c1C[C@H](N)C(=O)N1CCC[C@@H](C(=O)N[C@@H](Cc2c[nH]c3ccccc23)C(=O)N[C@@H](Cc2ccccc2)C(N)=O)C1', 234),
  ('NC(=O)[C@H](Cc1ccccc1)NC(=O)[C@H](Cc1c[nH]c2ccccc12)NC(=O)C1CCN(C(=O)[C@@H](N)Cc2ccc(O)cc2)CC1 (H-Y[Inp]WF-NH2)', 2.15),
  ('NC(=O)[C@H](Cc1ccccc1)NC(=O)[C@H](Cc1ccccc1)NC(=O)[C@@H]1CCCCN1C(=O)[C@@H](N)Cc1ccc(O)cc1', '> 12.5');
